- TARGET OR TEST SYSTEM: C-C chemokine receptor type 2 (Homo sapiens)
Provide the recorded pIC50 for the entries that follow.
Give bare numbers, as −log10 of the molar value.

{"SMILES CODE": "O=C(O)c1cc2cc(Cl)ccc2n1Cc1cccc([N+](=O)[O-])c1", "OBSERVED RESULT": 6.19}
{"SMILES CODE": "O=C(O)c1c(C(=O)O)n(Cc2ccc(Cl)c(Cl)c2)c2ccccc12", "OBSERVED RESULT": 7.02}
{"SMILES CODE": "COc1cccc(Cn2c(C(=O)O)cc3cc(Cl)ccc32)c1", "OBSERVED RESULT": 5.52}
{"SMILES CODE": "COc1cccc2cc(C(=O)O)n(Cc3ccc(Cl)c(Cl)c3)c12", "OBSERVED RESULT": 5.92}
{"SMILES CODE": "CS(=O)(=O)NC(=O)c1cc2ccccc2n1Cc1ccc(Cl)c(Cl)c1", "OBSERVED RESULT": 5.22}

Give me pIC50 for each of these compounds, listed below.
1. COc1ccc2c(c1)cc(C(=O)O)n2Cc1ccc(Cl)c(Cl)c1
2. Nc1ccc2c(c1)cc(C(=O)O)n2Cc1ccc(Cl)c(Cl)c1
3. O=C(O)c1cc2c(Cl)cccc2n1Cc1ccc(Cl)c(Cl)c1
4. COc1cccc2c1cc(C(=O)O)n2Cc1ccc(Cl)c(Cl)c1
5. O=C(O)c1cc2ccccc2n1S(=O)(=O)c1ccc(Cl)c(Cl)c1

Result:
6.39
6.30
6.82
6.55
5.99

====

- TARGET OR TEST SYSTEM: C-C chemokine receptor type 2 (Homo sapiens, UniProt P41597)
- Sequence (P41597 whole entry): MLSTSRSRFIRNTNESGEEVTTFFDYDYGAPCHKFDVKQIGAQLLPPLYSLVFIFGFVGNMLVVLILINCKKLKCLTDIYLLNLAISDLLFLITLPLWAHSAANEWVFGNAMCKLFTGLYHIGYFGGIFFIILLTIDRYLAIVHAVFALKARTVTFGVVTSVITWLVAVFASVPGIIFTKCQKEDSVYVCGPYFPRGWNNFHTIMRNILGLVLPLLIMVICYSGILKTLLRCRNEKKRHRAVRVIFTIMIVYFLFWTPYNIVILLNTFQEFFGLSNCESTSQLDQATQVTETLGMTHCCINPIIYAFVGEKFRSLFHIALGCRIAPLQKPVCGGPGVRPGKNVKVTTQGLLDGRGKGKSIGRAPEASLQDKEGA
Provide the recorded pIC50 for the entries that follow.
One number for each entry, as −log10 of the molar value.

{"SMILES CODE": "O=C(O)c1cc2cc(Cl)ccc2n1Cc1ccccc1Cl", "pIC50": 5.83}

Give me pIC50 for each of these molecules, listed below.
1. O=C(O)c1cc2ccccc2n1Cc1ccc(Cl)cc1
2. O=C(O)c1cc2ccc(Cl)cc2n1Cc1ccc(Cl)c(Cl)c1
3. NC(=O)c1cc2ccccc2n1Cc1ccc(Cl)c(Cl)c1

Result:
5.87
6.47
4.90

Give me pIC50 for each of these molecules, listed below.
1. Cc1ccc(Cn2c(C(=O)O)cc3cc(Cl)ccc32)cc1Cl
2. O=C(O)c1cc2ccccc2n1Cc1cccc(Cl)c1
3. N#Cc1cccc(Cn2c(C(=O)O)cc3cc(Cl)ccc32)c1

Result:
[6.92, 5.95, 5.70]

Give me pIC50 for each of these molecules, listed below.
1. O=C(O)c1cc2ccc(F)cc2n1Cc1ccc(Cl)c(Cl)c1
2. O=C(O)c1cc2cc(Cl)ccc2n1Cc1ccc(Cl)c(Cl)c1
3. O=C(O)c1cc2ccccc2n1Cc1ccccc1
4. O=C(O)c1cc2cc(C(F)(F)F)ccc2n1Cc1ccc(Cl)c(Cl)c1

Result:
7.05
6.96
5.77
6.77

Item Cc1ccc(Cn2c(C(=O)O)cc3cc(Cl)ccc32)cc1C ; assay system C-C chemokine receptor type 2 (Homo sapiens, UniProt P41597); pIC50 reported as 6.66
